Tested on: Digitaria sanguinalis (DIGSA)
Assay: Post-emergence efficacy, glasshouse spray test
Assay type: in vivo
Conditions: Digitaria sanguinalis, post-emergence, 312 h; application rate 500 g/Ha; evaluated after 13 days; read-out: Control of weed species DIGSA after post-emergence application (100=total damage to plant; 0=no damage to plant)
Lab note - cut at 60% for pest or weed control at 500 g/ha: yes if strictly below, no if not.

query: Lab log: compare recorded pest or weed control at 500 g/ha with 60%; is it strictly lower for N#Cc1cccc2cc[n+](CCS(=O)(=O)[O-])nc12 [Compound A110] ?
result: yes

query: Lab log: compare recorded pest or weed control at 500 g/ha with 60%; is it strictly lower for O=S(=O)([O-])CC[n+]1ccc2cc(C(F)(F)F)ccc2n1 [Compound A98] ?
result: yes

query: Lab log: compare recorded pest or weed control at 500 g/ha with 60%; is it strictly lower for O=S(=O)([O-])CCC[n+]1cc(C(Cl)(Cl)Cl)c2ccccc2n1 [Compound A40] ?
result: yes

query: Lab log: compare recorded pest or weed control at 500 g/ha with 60%; is it strictly lower for C[C@@H](CNS(=O)(=O)[O-])[n+]1ccc2ccccc2n1 [Compound A50] ?
result: yes

query: Lab log: compare recorded pest or weed control at 500 g/ha with 60%; is it strictly lower for CC(C)(C[n+]1ccc2ccccc2n1)C(=O)O [Compound A113, 2,2,2-trifluoroacetate] ?
result: yes

query: Lab log: compare recorded pest or weed control at 500 g/ha with 60%; is it strictly lower for COC(=O)c1ccc2n[n+](CCS(=O)(=O)[O-])ccc2c1 [Compound A100] ?
result: yes

query: Lab log: compare recorded pest or weed control at 500 g/ha with 60%; is it strictly lower for COC(=O)c1cccc2cc[n+](CCS(=O)(=O)[O-])nc12 [Compound A109] ?
result: yes

query: Lab log: compare recorded pest or weed control at 500 g/ha with 60%; is it strictly lower for COC(=O)c1ccc2cc[n+](CCS(=O)(=O)[O-])nc2c1 [Compound A108] ?
result: no

query: Lab log: compare recorded pest or weed control at 500 g/ha with 60%; is it strictly lower for CN(C)C(=O)c1ccc2n[n+](CCS(=O)(=O)[O-])ccc2c1 [Compound A101] ?
result: no

// data source = patent US20220046923A1
